- Organism: Rattus norvegicus
- PROTOCOL: Open TG-GATES - Regimen: Daily Repeat
- Type: toxicity, organism-based, Sprague-Dawley
- Set-up: regimen Daily Repeat, gender Male, age 6 weeks
- EXPERIMENTAL CONTEXT: in vivo, po, 100 mg/kg, […], tissue Blood, route gavage, dose level Low, time 7 day
MCHC by entry:
Give a bare numeral; the unit % is implied.

Known results for compounds:
{"COMPOUND": "CCN1CCCC1CNC(=O)c1cc(S(N)(=O)=O)ccc1OC (centres undefined) [SULPIRIDE]", "UNIT LABEL": "%", "MCHC": 33.2}
{"COMPOUND": "O=C(N[C@H](CO)[C@H](O)c1ccc([N+](=O)[O-])cc1)C(Cl)Cl", "UNIT LABEL": "%", "MCHC": 32.2}
{"COMPOUND": "CC(C)(S)[C@@H](N)C(=O)O", "UNIT LABEL": "%", "MCHC": 32.9}

Request: Need MCHC of O=C(O)c1cccnc1 , thanks.
Response: 34.1

###

- Species: Rattus norvegicus
- PROTOCOL: Open TG-GATES - Regimen: Single
- Format: toxicity, organism-based, Sprague-Dawley
- Design: regimen Single, gender Male, age 6 weeks
- EXPERIMENTAL CONTEXT: in vivo, po, 0 mg/kg, 3 h, tissue Blood, route gavage, dose level Control
Items are presented alongside their recorded Neu.
Write the number in % without appending the unit.

{"STRUCTURE AS SMILES": "O=C(N[C@H](CO)[C@H](O)c1ccc([N+](=O)[O-])cc1)C(Cl)Cl", "UNIT LABEL": "%", "Neu": 15.2}
{"STRUCTURE AS SMILES": "CCc1oc2ccccc2c1C(=O)c1cc(I)c(O)c(I)c1", "UNIT LABEL": "%", "Neu": 9.6}
{"STRUCTURE AS SMILES": "Nc1nc(N)c2nc(-c3ccccc3)c(N)nc2n1", "UNIT LABEL": "%", "Neu": 16}

# evaluate next
Request: Data request, read-out Neu, for C[C@]12CCC(=O)C=C1CC[C@@H]1[C@@H]2CC[C@@]2(C)[C@H]1CC[C@]2(C)O
Response: 20.6

###

- Species on record: Rattus norvegicus
- PROTOCOL: Open TG-GATES - Regimen: Daily Repeat
- Format: toxicity, organism-based, Sprague-Dawley
- Set-up: regimen Daily Repeat, gender Male, age 6 weeks
- EXPERIMENTAL CONTEXT: in vivo, po, 300 mg/kg, […], tissue Blood, route gavage, dose level Middle, time 14 day
MEASUREMENT NAME: PT (s)
Numbers only here, please. The scale is s.

Below, 3 compounds whose answers are already recorded.
{"COMPOUND": "O=C(N[C@H](CO)[C@H](O)c1ccc([N+](=O)[O-])cc1)C(Cl)Cl [CHLORAMPHENICOL]", "MEASUREMENT NAME": "PT", "RESULT VALUE": 14.8}
{"COMPOUND": "CCN1CCCC1CNC(=O)c1cc(S(N)(=O)=O)ccc1OC (centres undefined) [SULPIRIDE]", "MEASUREMENT NAME": "PT", "RESULT VALUE": 13.2}
{"COMPOUND": "CC(C)(S)[C@@H](N)C(=O)O [PENICILLAMINE]", "MEASUREMENT NAME": "PT", "RESULT VALUE": 14.3}

In the following, a different compound is considered.
Request: Request the reported PT associated with O=C(O)c1cccnc1 [NIACIN]
Response: 15.5
